TARGET OR SYSTEM: T1, N(A2B2)A-avi-His (biotinylated at the avi tag)
T1 construct: also called biotinylated N(A2B2)A-avi-His
T1 chain: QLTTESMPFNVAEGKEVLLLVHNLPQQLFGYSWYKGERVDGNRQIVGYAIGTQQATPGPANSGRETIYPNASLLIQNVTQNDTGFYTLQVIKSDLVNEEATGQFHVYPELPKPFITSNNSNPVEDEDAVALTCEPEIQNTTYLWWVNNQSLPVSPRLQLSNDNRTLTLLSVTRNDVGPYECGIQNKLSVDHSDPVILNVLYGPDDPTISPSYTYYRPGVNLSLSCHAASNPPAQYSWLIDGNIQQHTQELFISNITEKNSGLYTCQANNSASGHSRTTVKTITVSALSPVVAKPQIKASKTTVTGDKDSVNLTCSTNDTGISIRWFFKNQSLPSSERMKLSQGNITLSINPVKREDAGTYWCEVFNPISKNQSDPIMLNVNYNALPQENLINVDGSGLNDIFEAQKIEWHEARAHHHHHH
ASSAY SUMMARY: SPR, ProteOn, antigen on NLC chip, purified Fab as analyte
MEASUREMENT NAME: koff (s⁻¹)
Quick reminder: number only, in s⁻¹, skip the unit.

Report koff, nothing else, for this binder: P005.102 Fab (Fab, V domains shown, Fab from E. coli) VH: EVQLLESGGGLVQPGGSLRLSCAASGFTFTDYYMNWVRQAPGKGLEWLGFIGNKANAYTTEYSASVKGRFTISRDKSKNTLYLQMNSLRAEDTATYYCTRDRGIRFQFDYWGQGTTVTVSS VL: EIVLTQSPATLSLSPGERATLSCRASSSVTYIHWYQQKPGQAPRSWIYATSNLASGIPARFSGSGSGTDFTLTISSLEPEDFAVYYCQHWSSKSPTFGQGTKLEIK
3.92e-05

Identify the reported koff for the following entry. A5H1EL1D Fab (phage display format, parental clone) (Fab, V domains shown, Fab from E. coli (bacterial supernatant or IMAC-purified), Flag tag) VH: EVQLLESGGGLVQPGGSLRLSCAASGFTFTDYYMNWVRQAPGKGLEWLGFIGNKANAYTTEYSASVKGRFTISRDKSKNTLYLQMNSLRAEDTATYYCTRDRGLRFYFDYWGQGTTVTVSS VL: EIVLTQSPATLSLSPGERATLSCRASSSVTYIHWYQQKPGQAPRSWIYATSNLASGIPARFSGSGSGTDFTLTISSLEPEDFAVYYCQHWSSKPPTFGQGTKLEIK
0.000248
